Measured values drawn from patent US9670204B2 for this set.

Biological target: hENPP2 (UniProtKB/SwissProt Q13822) (Homo sapiens (Human), UniProt Q13822)
Test: hENPP2 biochemical assay, LPC as substrate
Settings: LPC (palmitoyl 16:0) as substrate
pIC50: −log10 of the molar value.
Below, each of the compounds is paired with its reported pIC50 value.

The reported pIC50 of the compound CCc1nc2ccc(C3CCN(S(C)(=O)=O)CC3)cn2c1N(C)c1nc(-c2ccc(F)cc2CO)cs1 [Compound 107] was 6.00 to 6.30

The reported pIC50 of the compound CCc1nc2ccc(C3CCN(C[C@H]4CNC(=O)O4)CC3)cn2c1N(C)c1nc(-c2ccc(F)cc2)cs1 [Compound 196] was < 6.00

The reported pIC50 of the compound CCc1nc2ccc(C3CCN(S(C)(=O)=O)CC3)cn2c1N(C)c1nc(-c2ccc(C(F)(F)F)cc2)cs1 [Compound 84] was < 6.00

---

Below, each of the molecules is paired with its reported pIC50 value.
Target: hENPP2 (UniProtKB/SwissProt Q13822) (Homo sapiens (Human), UniProt Q13822)
Experiment: hENPP2 biochemical assay, LPC as substrate
Details: LPC (palmitoyl 16:0) as substrate
pIC50: −log10 of the molar value.

The reported pIC50 of the molecule CCc1nc2ccc(C3CCN(S(C)(=O)=O)CC3)cn2c1N(C)c1nc(-c2ccc(F)cc2)c(C)s1 was < 6.00

The reported pIC50 of the molecule CCc1nc2ccc(N3CCN(CC(=O)N4CC[C@H](O)C4)CC3)cn2c1N(C)c1nc(-c2ccc(F)cc2)cs1 was 6.30 to 7.00

The reported pIC50 of the molecule CCc1nc2ccc(C3CCN(S(=O)(=O)CCCN)CC3)cn2c1N(C)c1nc(-c2ccc(F)cc2)cs1 was 6.00 to 6.30

The reported pIC50 of the molecule CCc1nc2ccc(N3CCN(S(=O)(=O)CCCN4CCCC4)CC3)cn2c1N(C)c1nc(-c2ccc(F)cc2)cs1 was < 6.00

The reported pIC50 of the molecule CCc1nc2ccc(C3CCN(C(=O)CN4CC(F)(F)C4)CC3)cn2c1N(C)c1nc(-c2ccc(F)cc2)cs1 was 6.30 to 7.00

---

Below, each of the compounds is paired with its reported IC50 value.
Molecular target: hENPP2 (UniProtKB/SwissProt Q13822) (Homo sapiens (Human), UniProt Q13822)
Assay: hENPP2 biochemical assay, LPC as substrate
Conditions: LPC (palmitoyl 16:0) as substrate

The reported IC50 of the compound CCc1nc2ccc(C3CCN(CC(=O)N(C)CCO)CC3)cn2c1N(C)c1nc(-c2ccc(F)cc2)cs1 was 500 to 1000 nM

The reported IC50 of the compound CCc1nc2ccc(N3CCN(CC(=O)N(C)C)CC3)cn2c1N(C)c1nc(-c2ccc(F)cc2)c(C(=O)C(F)(F)F)s1 was 100 to 500 nM

The reported IC50 of the compound CCc1nc2ccc(C3CCN(S(C)(=O)=O)CC3)cn2c1N(C)c1nc(-c2ccc(F)cc2C#N)cs1 was 100 to 500 nM

---

Target: hENPP2 (UniProtKB/SwissProt Q13822) (Homo sapiens (Human), UniProt Q13822)
Experiment: fluorescent hENPP2 biochemical assay, FS-3 as substrate
Details: read-out: FS3-IC50
Below, each of the molecules is paired with its reported IC50 value.

>>> value_observed("CCc1nc2ccc(C3CCN(CC(=O)N4CC[C@H](O)C4)CC3)cn2c1N(C)c1nc(-c2ccc(F)cc2)cs1 [Compound 112]")
"0.01 to 100 nM"
>>> value_observed("CCc1nc2ccc(N3CCN(C(=O)C4CCNC4)CC3)cn2c1N(C)c1nc(-c2ccc(F)cc2)cs1 (stereo not shown) [Compound 47]")
"0.01 to 100 nM"
>>> value_observed("CCc1nc2ccc(N3CCCS3(=O)=O)cn2c1N(C)c1nc(-c2ccc(F)cc2)cs1 [Compound 229]")
"100 to 500 nM"

// next item, IC50 requested
The reported IC50 of the molecule CCc1nc2ccc(N3CCN(S(=O)(=O)CC(N)=O)CC3)cn2c1N(C)c1nc(-c2ccc(F)cc2)cs1 [Compound 61] was 0.01 to 100 nM
